assay: Dynamic CT diffusion phantom study (dialysis cassette in fetal bovine serum); assay type: physicochemical; conditions: dialysis cassette 20,000 MWCO, 20 mmol Gd/L, CT signal over 30 h

| COMPOUND | Diffusion half-live (20 kDa) [h] |
| --- | --- |
| COCCN(CC(=O)NCC(CNC(=O)CN(CCOC)C(=O)CN1CCN(CC(=O)[O-])CCN(CC(=O)[O-])CCN(CC(=O)[O-])CC1)(CNC(=O)CN(CCOC)C(=O)CN1CCN(CC(=O)[O-])CCN(CC(=O)[O-])CCN(CC(=O)[O-])CC1)CNC(=O)CN(CCOC)C(=O)CN1CCN(CC(=O)[O-])CCN(CC(=O)[O-])CCN(CC(=O)[O-])CC1)C(=O)CN1CCN(CC(=O)[O-])CCN(CC(=O)[O-])CCN(CC(=O)[O-])CC1.[Gd+3].[Gd+3].[Gd+3].[Gd+3] [Example 3] | 11.6 |
| CCN(CC(=O)NCC(CNC(=O)CN(CC)C(=O)CN1CCN(CC(=O)[O-])CCN(CC(=O)[O-])CCN(CC(=O)[O-])CC1)(CNC(=O)CN(CC)C(=O)CN1CCN(CC(=O)[O-])CCN(CC(=O)[O-])CCN(CC(=O)[O-])CC1)CNC(=O)CN(CC)C(=O)CN1CCN(CC(=O)[O-])CCN(CC(=O)[O-])CCN(CC(=O)[O-])CC1)C(=O)CN1CCN(CC(=O)[O-])CCN(CC(=O)[O-])CCN(CC(=O)[O-])CC1.[Gd+3].[Gd+3].[Gd+3].[Gd+3] [Example 2] | 13.3 |
| CN(CC(=O)NCC(CNC(=O)CN(C)C(=O)CN1CCN(CC(=O)[O-])CCN(CC(=O)[O-])CCN(CC(=O)[O-])CC1)(CNC(=O)CN(C)C(=O)CN1CCN(CC(=O)[O-])CCN(CC(=O)[O-])CCN(CC(=O)[O-])CC1)CNC(=O)CN(C)C(=O)CN1CCN(CC(=O)[O-])CCN(CC(=O)[O-])CCN(CC(=O)[O-])CC1)C(=O)CN1CCN(CC(=O)[O-])CCN(CC(=O)[O-])CCN(CC(=O)[O-])CC1.[Gd+3].[Gd+3].[Gd+3].[Gd+3] [Example 1] | 10.4 |
| CC(C)CN(CC(=O)NCC(CNC(=O)CN(CC(C)C)C(=O)CN1CCN(CC(=O)[O-])CCN(CC(=O)[O-])CCN(CC(=O)[O-])CC1)(CNC(=O)CN(CC(C)C)C(=O)CN1CCN(CC(=O)[O-])CCN(CC(=O)[O-])CCN(CC(=O)[O-])CC1)CNC(=O)CN(CC(C)C)C(=O)CN1CCN(CC(=O)[O-])CCN(CC(=O)[O-])CCN(CC(=O)[O-])CC1)C(=O)CN1CCN(CC(=O)[O-])CCN(CC(=O)[O-])CCN(CC(=O)[O-])CC1.[Gd+3].[Gd+3].[Gd+3].[Gd+3] [Example 6] | 15.0 |
| O=C([O-])CN1CCN(CC(=O)[O-])CCN([C@H](CO)[C@H](O)CO)CCN(CC(=O)[O-])CC1.[Gd+3] (racemic) [RC1, gadobutrol, reference compound] | 2.1 |
| CC(C)N(CC(=O)NCC(CNC(=O)CN(C(=O)CN1CCN(CC(=O)[O-])CCN(CC(=O)[O-])CCN(CC(=O)[O-])CC1)C(C)C)(CNC(=O)CN(C(=O)CN1CCN(CC(=O)[O-])CCN(CC(=O)[O-])CCN(CC(=O)[O-])CC1)C(C)C)CNC(=O)CN(C(=O)CN1CCN(CC(=O)[O-])CCN(CC(=O)[O-])CCN(CC(=O)[O-])CC1)C(C)C)C(=O)CN1CCN(CC(=O)[O-])CCN(CC(=O)[O-])CCN(CC(=O)[O-])CC1.[Gd+3].[Gd+3].[Gd+3].[Gd+3] [Example 5] | 10.8 |
